Test: Stability against oxidative degradation in buffer solutions and cell culture medium
Format: physicochemical
Details: simulated body fluid; SBF (pH 7.4), 37°C, up to 72 h; read-out: Half-life, t1/2 (converted)
measurement_label: half-life at 10 mM (h)
Dear colleague, please return just the value in h, with no unit written.

Q: Query (compound): Oc1ccc(/C=C/c2cc(O)cc(O)c2)cc1 [resveratrol, trans-3,5,4′-trihydroxystilbene] ; field requested: half-life at 10 mM
A: 44

* * *

Listing: half-life at 10 mM of selected molecules
Experiment: Stability against oxidative degradation in buffer solutions and cell culture medium
Assay type: physicochemical
Settings: Buffer pH 2.0 (hydrochloric acid), 37°C, up to 72 h; read-out: Half-life, t1/2 (converted)

molecule=OC[C@H]1O[C@@H](Oc2cc(O)cc(/C=C/c3ccc(O)cc3)c2)[C@H](O)[C@@H](O)[C@@H]1O measurement="> 72 h"

Attention now shifts to the item below.
Q: # get_value(readout='half-life at 10 mM', item= Oc1ccc(/C=C/c2cc(O)cc(O)c2)cc1 [resveratrol, trans-3,5,4′-trihydroxystilbene] )
A: > 72 h

Where do the numbers come from? From paper PMC9706033.
